Just for reference, paper PMC10397247 is where these values come from.

Target: T1, 4H3165-AA
T1 chain: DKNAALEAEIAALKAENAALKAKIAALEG
Experiment: two-hybrid library CCmax;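 note: natural log of median RNA to DNA barcode read ratio; higher means stronger binding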
Details: mean of both orientations
measured_quantity: interaction score

# example entries with known answers
* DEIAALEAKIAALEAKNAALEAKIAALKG [4H310-AA] | -1.5
* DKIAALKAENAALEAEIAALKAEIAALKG [4H2698-AA] | -1.39

A = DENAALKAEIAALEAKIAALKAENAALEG [4H1579-AA]
B = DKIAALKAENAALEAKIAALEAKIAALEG [4H2725-AA]
Field: entry with larger interaction score (options A / B ). Identify your selection by its label.
B
